- assay-text: qHTS Assay for Lipid Storage Modulators (AID 1519); also: % is scaled to controls: 0 for no effect and ±100 for the full control effect
- applied-conditions: Drosophila S3 cells, BODIPY lipid droplet/cell ratio, laser cytometry; at 57.5 µM (top of the series); cells loaded with oleic acid
Results filed as inconclusive are left out.
measurement-type: activity change, negative = inhibition (%)

> print(dat)
                                    compound                        measurement.type  reading.unit  experimental.result
 1            COc1ccc(CC(=O)c2ccc(O)cc2O)cc1  activity change, negative = inhibition             %                 4.14
 2      Cc1ccc2c(c1)CC[C@H]1CC(=O)CC[C@@]21C  activity change, negative = inhibition             %                 2.54
 3  Nc1ncnc2c1nc(Br)n2[C@H]1O[C@H]2COP(=O)(O)O[C@H]2[C@@H]1O  activity change, negative = inhibition             %                -1.26
 4  CCCC1OC2CC3C4CCC5=CC(=O)C=CC5(C)C4C(O)CC3(C)[C@]2(C(=O)CO)O1 (stereo not given in full)  activity change, negative = inhibition             %                 8.38
 5      CC(C)(C)NC[C@@H](O)COc1nsnc1N1CCOCC1  activity change, negative = inhibition             %                 13.4
 6    CC(=O)N[C@@H](Cc1c[nH]c2ccccc12)C(=O)O  activity change, negative = inhibition             %                 5.86
 7  CC(=O)OC1CC[C@@]2(C)C(CC[C@@]3(C)C2CC=C2C4CC(C)(C)CC[C@]4(C(=O)O)CC[C@@]23C)C1(C)C (stereo not given in full)  activity change, negative = inhibition             %                 9.65
 8  NC(Cn1ccc(=O)c(O)c1)C(=O)O (stereo not given)  activity change, negative = inhibition             %                 3.76
 9  CC1=CC(=O)C2C(C)(C)CCC[C@@]2(C)[C@@]1(O)CCc1ccoc1 (stereo not given in full)  activity change, negative = inhibition             %                -1.73
10  CC1(C)SC2C(NC(=O)C(N)c3ccccc3)C(=O)N2C1C(=O)O (stereo not given)  activity change, negative = inhibition             %                 7.23
